System: Escherichia coli TOP10
Experiment: shrunken log2 fold change of peptide-encoding DNA abundance (4.5 h post-induction vs induction); higher = less antimicrobial activity (less host growth inhibition)
Conditions: time post-induction: 4.5 h; library: site-saturation at positions 5, 18, 19, 20
QUANTITY_KIND: shrunken log2 fold change
The reply should be a number, written without any unit.

Consider the sequence RRIRPRPPRLPRPRPRPYLNPRP and give its recorded shrunken log2 fold change.
-0.765

Consider the sequence RRIRGRPPRLPRPRPRPMNTPRP and give its recorded shrunken log2 fold change.
0.632

Consider the sequence RRIRTRPPRLPRPRPRPGKLPRP and give its recorded shrunken log2 fold change.
-0.394

Consider the sequence RRIRLRPPRLPRPRPRPNWPPRP and give its recorded shrunken log2 fold change.
0.379

Consider the sequence RRIRRRPPRLPRPRPRPEDPPRP and give its recorded shrunken log2 fold change.
0.192

Consider the sequence RRIRHRPPRLPRPRPRPGLQPRP and give its recorded shrunken log2 fold change.
0.157

Consider the sequence RRIRVRPPRLPRPRPRPIKKPRP and give its recorded shrunken log2 fold change.
-0.015

Consider the sequence RRIRSRPPRLPRPRPRPHTVPRP and give its recorded shrunken log2 fold change.
-0.218

Consider the sequence RRIRKRPPRLPRPRPRPIGFPRP and give its recorded shrunken log2 fold change.
-0.00176

Consider the sequence RRIRNRPPRLPRPRPRPNFTPRP and give its recorded shrunken log2 fold change.
-0.197

Consider the sequence RRIRCRPPRLPRPRPRPWCEPRP and give its recorded shrunken log2 fold change.
-0.349

Consider the sequence RRIRNRPPRLPRPRPRPSKVPRP and give its recorded shrunken log2 fold change.
0.0123

Consider the sequence RRIRFRPPRLPRPRPRPFNHPRP and give its recorded shrunken log2 fold change.
-0.285

Consider the sequence RRIRVRPPRLPRPRPRPQEDPRP and give its recorded shrunken log2 fold change.
-0.467

Consider the sequence RRIRKRPPRLPRPRPRPFLHPRP and give its recorded shrunken log2 fold change.
-0.0903

Consider the sequence RRIRQRPPRLPRPRPRPRPLPRP and give its recorded shrunken log2 fold change.
0.382

Consider the sequence RRIRWRPPRLPRPRPRPCYVPRP and give its recorded shrunken log2 fold change.
-0.127

Consider the sequence RRIRARPPRLPRPRPRPDWNPRP and give its recorded shrunken log2 fold change.
0.0789

Consider the sequence RRIRLRPPRLPRPRPRPAIEPRP and give its recorded shrunken log2 fold change.
0.0744

Consider the sequence RRIRPRPPRLPRPRPRPGNIPRP and give its recorded shrunken log2 fold change.
-0.000778

Consider the sequence RRIRGRPPRLPRPRPRPGVEPRP and give its recorded shrunken log2 fold change.
1.46

Consider the sequence RRIRFRPPRLPRPRPRPCTCPRP and give its recorded shrunken log2 fold change.
-0.187

Consider the sequence RRIRVRPPRLPRPRPRPEIEPRP and give its recorded shrunken log2 fold change.
0.173

Consider the sequence RRIRYRPPRLPRPRPRPAFGPRP and give its recorded shrunken log2 fold change.
-0.21

Consider the sequence RRIRVRPPRLPRPRPRPSVRPRP and give its recorded shrunken log2 fold change.
-0.297

Consider the sequence RRIRSRPPRLPRPRPRPHDVPRP and give its recorded shrunken log2 fold change.
-0.0229

Consider the sequence RRIRDRPPRLPRPRPRPRHGPRP and give its recorded shrunken log2 fold change.
-0.0452

Consider the sequence RRIRNRPPRLPRPRPRPTCWPRP and give its recorded shrunken log2 fold change.
0.696

Consider the sequence RRIRFRPPRLPRPRPRPLFKPRP and give its recorded shrunken log2 fold change.
-0.279

Consider the sequence RRIRCRPPRLPRPRPRPVVVPRP and give its recorded shrunken log2 fold change.
-0.203

Consider the sequence RRIRQRPPRLPRPRPRPEIDPRP and give its recorded shrunken log2 fold change.
-0.0412

Consider the sequence RRIRNRPPRLPRPRPRPSMHPRP and give its recorded shrunken log2 fold change.
-0.805

* * *

System: Escherichia coli TOP10
Test: shrunken log2 fold change of peptide-encoding DNA abundance (4.5 h post-induction vs induction); higher = less antimicrobial activity (less host growth inhibition)
Conditions: time post-induction: 4.5 h; library: site-saturation at positions 5, 18, 19, 20
Param threshold (0.09) applies to shrunken log2 fold change; output rule met when value >= threshold, rule not met when value < threshold.

Would you say RRIRWRPPRLPRPRPRPWKPPRP shows shrunken log2 fold change at minimum 0.09?
rule not met

Would you say RRIRKRPPRLPRPRPRPMYLPRP shows shrunken log2 fold change at minimum 0.09?
rule met

Would you say RRIRFRPPRLPRPRPRPCTGPRP shows shrunken log2 fold change at minimum 0.09?
rule not met

Would you say RRIRARPPRLPRPRPRPQGLPRP shows shrunken log2 fold change at minimum 0.09?
rule met

Would you say RRIRPRPPRLPRPRPRPVKCPRP shows shrunken log2 fold change at minimum 0.09?
rule not met

Would you say RRIRPRPPRLPRPRPRPTFEPRP shows shrunken log2 fold change at minimum 0.09?
rule not met

Would you say RRIRTRPPRLPRPRPRPNRYPRP shows shrunken log2 fold change at minimum 0.09?
rule not met

Would you say RRIRVRPPRLPRPRPRPKKIPRP shows shrunken log2 fold change at minimum 0.09?
rule not met

Would you say RRIRHRPPRLPRPRPRPHQSPRP shows shrunken log2 fold change at minimum 0.09?
rule not met

Would you say RRIRPRPPRLPRPRPRPLFWPRP shows shrunken log2 fold change at minimum 0.09?
rule met

Would you say RRIRNRPPRLPRPRPRPPDSPRP shows shrunken log2 fold change at minimum 0.09?
rule not met

Would you say RRIRDRPPRLPRPRPRPIDCPRP shows shrunken log2 fold change at minimum 0.09?
rule not met

Would you say RRIRPRPPRLPRPRPRPVFPPRP shows shrunken log2 fold change at minimum 0.09?
rule met

Would you say RRIRGRPPRLPRPRPRPHNMPRP shows shrunken log2 fold change at minimum 0.09?
rule not met

Would you say RRIRGRPPRLPRPRPRPWRKPRP shows shrunken log2 fold change at minimum 0.09?
rule met

Would you say RRIRQRPPRLPRPRPRPERIPRP shows shrunken log2 fold change at minimum 0.09?
rule not met

Would you say RRIRGRPPRLPRPRPRPDEYPRP shows shrunken log2 fold change at minimum 0.09?
rule met

Would you say RRIRGRPPRLPRPRPRPRIIPRP shows shrunken log2 fold change at minimum 0.09?
rule not met

Would you say RRIRWRPPRLPRPRPRPLEHPRP shows shrunken log2 fold change at minimum 0.09?
rule met

Would you say RRIRVRPPRLPRPRPRPWREPRP shows shrunken log2 fold change at minimum 0.09?
rule met

Would you say RRIRMRPPRLPRPRPRPHKKPRP shows shrunken log2 fold change at minimum 0.09?
rule not met

Would you say RRIRRRPPRLPRPRPRPFICPRP shows shrunken log2 fold change at minimum 0.09?
rule not met

Would you say RRIRPRPPRLPRPRPRPIDKPRP shows shrunken log2 fold change at minimum 0.09?
rule not met

Would you say RRIRCRPPRLPRPRPRPTPDPRP shows shrunken log2 fold change at minimum 0.09?
rule met

Would you say RRIRWRPPRLPRPRPRPGWTPRP shows shrunken log2 fold change at minimum 0.09?
rule met

Would you say RRIRWRPPRLPRPRPRPQAKPRP shows shrunken log2 fold change at minimum 0.09?
rule not met

Would you say RRIRSRPPRLPRPRPRPQGHPRP shows shrunken log2 fold change at minimum 0.09?
rule not met

Would you say RRIRIRPPRLPRPRPRPTWYPRP shows shrunken log2 fold change at minimum 0.09?
rule not met

Would you say RRIRCRPPRLPRPRPRPWRDPRP shows shrunken log2 fold change at minimum 0.09?
rule not met

Would you say RRIRGRPPRLPRPRPRPWLLPRP shows shrunken log2 fold change at minimum 0.09?
rule met

Would you say RRIRLRPPRLPRPRPRPYYEPRP shows shrunken log2 fold change at minimum 0.09?
rule not met

* * *

Please respond with reported shrunken log2 fold change for every item in the list.
Test system: Escherichia coli TOP10;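 also: peptides expressed intracellularly from a pBAD plasmid library in pooled LB shake-flask culture, induced with 0.3% L-arabinose, DNA abundance read by NGS, three biological replicates, DESeq2 with apeglm shrinkage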
Assay: shrunken log2 fold change of peptide-encoding DNA abundance (4.5 h post-induction vs induction); higher = less antimicrobial activity (less host growth inhibition)
Details: time post-induction: 4.5 h; library: site-saturation at positions 5, 18, 19, 20
The reply should be a number, written without any unit.

Give the observed shrunken log2 fold change of RRIRSRPPRLPRPRPRPWEDPRP for Escherichia coli TOP10.
-0.0124

Give the observed shrunken log2 fold change of RRIRPRPPRLPRPRPRPCRDPRP for Escherichia coli TOP10.
1.11

Give the observed shrunken log2 fold change of RRIRTRPPRLPRPRPRPFICPRP for Escherichia coli TOP10.
-0.292

Give the observed shrunken log2 fold change of RRIRARPPRLPRPRPRPRGTPRP for Escherichia coli TOP10.
0.448

Give the observed shrunken log2 fold change of RRIRCRPPRLPRPRPRPFAIPRP for Escherichia coli TOP10.
-0.682

Give the observed shrunken log2 fold change of RRIRWRPPRLPRPRPRPSKPPRP for Escherichia coli TOP10.
-0.0185

Give the observed shrunken log2 fold change of RRIRWRPPRLPRPRPRPMWCPRP for Escherichia coli TOP10.
-0.166

Give the observed shrunken log2 fold change of RRIRERPPRLPRPRPRPSIFPRP for Escherichia coli TOP10.
-0.343

Give the observed shrunken log2 fold change of RRIRTRPPRLPRPRPRPHIHPRP for Escherichia coli TOP10.
-0.102

Give the observed shrunken log2 fold change of RRIRERPPRLPRPRPRPNPFPRP for Escherichia coli TOP10.
0.0226

Give the observed shrunken log2 fold change of RRIRGRPPRLPRPRPRPRGFPRP for Escherichia coli TOP10.
0.817

Give the observed shrunken log2 fold change of RRIRLRPPRLPRPRPRPGNHPRP for Escherichia coli TOP10.
-0.267

Give the observed shrunken log2 fold change of RRIRMRPPRLPRPRPRPGHNPRP for Escherichia coli TOP10.
0.231

Give the observed shrunken log2 fold change of RRIRYRPPRLPRPRPRPRRLPRP for Escherichia coli TOP10.
-0.385

Give the observed shrunken log2 fold change of RRIRWRPPRLPRPRPRPIEMPRP for Escherichia coli TOP10.
0.467

Cited source: the supplement of paper PMC9112550
